settings: in n-pentanol, 303.15 K
assayReadout: solubility (mole fraction)

>>> print(df.to_string())
          smilescode                assayreadout  valuemeasured
0  CC1(C)NC(=O)NC1=O  solubility (mole fraction)         0.0398

* * *

details: in ethanol, 293.15 K
assayReadout: solubility (mole fraction)

>>> df
          smilescode  valuemeasured
0  CC1(C)NC(=O)NC1=O         0.0526

* * *

conditions: in isobutanol, 298.15 K
assayReadout: solubility (mole fraction)

>>> df
          smilescode                assayreadout  valuemeasured
0  CC1(C)NC(=O)NC1=O  solubility (mole fraction)          0.038

* * *

settings: in acetonitrile, 323.15 K
assayReadout: solubility (mole fraction)

>>> print(df.to_string())
          smilescode                assayreadout  valuemeasured
0  CC1(C)NC(=O)NC1=O  solubility (mole fraction)          0.039

* * *

settings: in n-butanol, 288.15 K
assayReadout: solubility (mole fraction)

In [3]: df
Out[3]:
          smilescode                assayreadout  valuemeasured
0  CC1(C)NC(=O)NC1=O  solubility (mole fraction)         0.0296

* * *

conditions: in isobutanol, 318.15 K
assayReadout: solubility (mole fraction)

>>> print(df.to_string())
          smilescode                assayreadout  valuemeasured
0  CC1(C)NC(=O)NC1=O  solubility (mole fraction)         0.0672

* * *

details: in isopropanol, 303.15 K
assayReadout: solubility (mole fraction)

>>> print(df.to_string())
          smilescode  valuemeasured
0  CC1(C)NC(=O)NC1=O          0.063

* * *

details: in isobutanol, 308.15 K
assayReadout: solubility (mole fraction)

In [3]: df
Out[3]:
          smilescode  valuemeasured
0  CC1(C)NC(=O)NC1=O         0.0509

* * *

conditions: in ethanol, 323.15 K
assayReadout: solubility (mole fraction)

>>> df
          smilescode  valuemeasured
0  CC1(C)NC(=O)NC1=O          0.108

* * *

details: in methanol, 313.15 K
assayReadout: solubility (mole fraction)

>>> print(df.to_string())
          smilescode  valuemeasured
0  CC1(C)NC(=O)NC1=O          0.122

* * *

settings: in acetonitrile, 303.15 K
assayReadout: solubility (mole fraction)

          smilescode  valuemeasured
0  CC1(C)NC(=O)NC1=O         0.0227

* * *

conditions: in sec-butanol, 293.15 K
assayReadout: solubility (mole fraction)

>>> df
          smilescode                assayreadout  valuemeasured
0  CC1(C)NC(=O)NC1=O  solubility (mole fraction)         0.0505

* * *

conditions: in acetonitrile, 308.15 K
assayReadout: solubility (mole fraction)

In [3]: df
Out[3]:
          smilescode  valuemeasured
0  CC1(C)NC(=O)NC1=O          0.026

* * *

conditions: in n-butanol, 283.15 K
assayReadout: solubility (mole fraction)

>>> df
          smilescode  valuemeasured
0  CC1(C)NC(=O)NC1=O          0.026

* * *

conditions: in ethyl acetate, 303.15 K
assayReadout: solubility (mole fraction)

>>> df
          smilescode  valuemeasured
0  CC1(C)NC(=O)NC1=O         0.0191

* * *

settings: in water, 293.15 K
assayReadout: solubility (mole fraction)

>>> print(df.to_string())
          smilescode  valuemeasured
0  CC1(C)NC(=O)NC1=O         0.0213

* * *

conditions: in n-propanol, 308.15 K
assayReadout: solubility (mole fraction)

          smilescode  valuemeasured
0  CC1(C)NC(=O)NC1=O         0.0616

* * *

settings: in isobutanol, 323.15 K
assayReadout: solubility (mole fraction)

>>> df
          smilescode                assayreadout  valuemeasured
0  CC1(C)NC(=O)NC1=O  solubility (mole fraction)         0.0757

* * *

conditions: in ethyl acetate, 323.15 K
assayReadout: solubility (mole fraction)

          smilescode  valuemeasured
0  CC1(C)NC(=O)NC1=O         0.0289

* * *

conditions: in n-pentanol, 318.15 K
assayReadout: solubility (mole fraction)

>>> df
          smilescode                assayreadout  valuemeasured
0  CC1(C)NC(=O)NC1=O  solubility (mole fraction)         0.0583

* * *

conditions: in isopropanol, 318.15 K
assayReadout: solubility (mole fraction)

          smilescode  valuemeasured
0  CC1(C)NC(=O)NC1=O         0.0914

* * *

details: in methanol, 298.15 K
assayReadout: solubility (mole fraction)

In [3]: df
Out[3]:
          smilescode  valuemeasured
0  CC1(C)NC(=O)NC1=O         0.0896

* * *

details: in n-propyl acetate, 293.15 K
assayReadout: solubility (mole fraction)

          smilescode  valuemeasured
0  CC1(C)NC(=O)NC1=O         0.0118

* * *

conditions: in n-propanol, 313.15 K
assayReadout: solubility (mole fraction)

>>> df
          smilescode  valuemeasured
0  CC1(C)NC(=O)NC1=O         0.0687

* * *

settings: in n-pentanol, 288.15 K
assayReadout: solubility (mole fraction)

          smilescode  valuemeasured
0  CC1(C)NC(=O)NC1=O         0.0267

* * *

details: in n-butanol, 323.15 K
assayReadout: solubility (mole fraction)

>>> print(df.to_string())
          smilescode  valuemeasured
0  CC1(C)NC(=O)NC1=O         0.0737

* * *

conditions: in n-propanol, 283.15 K
assayReadout: solubility (mole fraction)

In [3]: df
Out[3]:
          smilescode                assayreadout  valuemeasured
0  CC1(C)NC(=O)NC1=O  solubility (mole fraction)         0.0326

* * *

details: in n-propyl acetate, 318.15 K
assayReadout: solubility (mole fraction)

In [3]: df
Out[3]:
          smilescode  valuemeasured
0  CC1(C)NC(=O)NC1=O         0.0215

* * *

conditions: in acetonitrile, 313.15 K
assayReadout: solubility (mole fraction)

>>> print(df.to_string())
          smilescode                assayreadout  valuemeasured
0  CC1(C)NC(=O)NC1=O  solubility (mole fraction)         0.0294

* * *

conditions: in water, 283.15 K
assayReadout: solubility (mole fraction)

>>> print(df.to_string())
          smilescode                assayreadout  valuemeasured
0  CC1(C)NC(=O)NC1=O  solubility (mole fraction)         0.0163

* * *

settings: in ethanol, 288.15 K
assayReadout: solubility (mole fraction)

In [3]: df
Out[3]:
          smilescode                assayreadout  valuemeasured
0  CC1(C)NC(=O)NC1=O  solubility (mole fraction)         0.0465

* * *

settings: in acetonitrile, 283.15 K
assayReadout: solubility (mole fraction)

>>> print(df.to_string())
          smilescode  valuemeasured
0  CC1(C)NC(=O)NC1=O         0.0123

* * *

settings: in n-propanol, 288.15 K
assayReadout: solubility (mole fraction)

>>> print(df.to_string())
          smilescode                assayreadout  valuemeasured
0  CC1(C)NC(=O)NC1=O  solubility (mole fraction)         0.0373

* * *

details: in ethyl acetate, 318.15 K
assayReadout: solubility (mole fraction)

In [3]: df
Out[3]:
          smilescode                assayreadout  valuemeasured
0  CC1(C)NC(=O)NC1=O  solubility (mole fraction)          0.026

* * *

conditions: in methanol, 308.15 K
assayReadout: solubility (mole fraction)

          smilescode  valuemeasured
0  CC1(C)NC(=O)NC1=O          0.111

* * *

settings: in ethyl acetate, 293.15 K
assayReadout: solubility (mole fraction)

In [3]: df
Out[3]:
          smilescode  valuemeasured
0  CC1(C)NC(=O)NC1=O         0.0154

* * *

conditions: in n-butanol, 308.15 K
assayReadout: solubility (mole fraction)

          smilescode  valuemeasured
0  CC1(C)NC(=O)NC1=O         0.0509

* * *

conditions: in n-propanol, 303.15 K
assayReadout: solubility (mole fraction)

          smilescode  valuemeasured
0  CC1(C)NC(=O)NC1=O         0.0543

* * *

conditions: in isobutanol, 293.15 K
assayReadout: solubility (mole fraction)

>>> print(df.to_string())
          smilescode  valuemeasured
0  CC1(C)NC(=O)NC1=O         0.0328
